# maps each entry to its pIC50
test system: NCI-H460; experiment: Cytotoxicity against human NCI-H460 cells after 72 hrs by MTT assay; assay type: functional, cell-based; conditions: NCI-H460, 72 h
Remember the convention: pIC50 equals -log10 of concentration in molar.

{"Compound": "C/C=C(/C)C(=O)OC[C@H]1c2c(O)c(OC)c(C)c(OC(=O)c3cnc4ccccc4c3)c2C[C@H]2[C@H]3C4=C(C[C@H]([C@H](C#N)N12)N3C)C(=O)C(C)=C(OC)C4=O", "Assay result": 7.66}
{"Compound": "COC1=C(C)C(=O)C2=C(C1=O)[C@@H]1[C@@H]3CC4=C(C(=O)C(OC)=C(C)C4=O)[C@H](CO)N3[C@@H](C#N)[C@@H](C2)N1C", "Assay result": 6.79}
{"Compound": "C/C=C(/C)C(=O)OC[C@H]1c2c(O)c(OC)c(C)c(OC(=O)/C=C/c3ccccc3)c2C[C@H]2[C@H]3C4=C(C[C@H]([C@H](C#N)N12)N3C)C(=O)C(C)=C(OC)C4=O", "Assay result": 7.96}
{"Compound": "C/C=C(/C)C(=O)OC[C@H]1c2c(O)c(OC)c(C)c(OC=O)c2C[C@H]2[C@H]3C4=C(C[C@H]([C@H](C#N)N12)N3C)C(=O)C(C)=C(OC)C4=O", "Assay result": 8.01}
{"Compound": "C/C=C(/C)C(=O)OC[C@H]1c2c(O)c(OC)c(C)c(OC(=O)/C=C/c3cccnc3)c2C[C@H]2[C@H]3C4=C(C[C@H]([C@H](C#N)N12)N3C)C(=O)C(C)=C(OC)C4=O", "Assay result": 7.28}
{"Compound": "C/C=C(/C)C(=O)OC[C@H]1c2c(O)c(OC)c(C)c(OC(=O)c3cccnc3)c2C[C@H]2[C@H]3C4=C(C[C@H]([C@H](C#N)N12)N3C)C(=O)C(C)=C(OC)C4=O", "Assay result": 7.70}
{"Compound": "C/C=C(/C)C(=O)OC[C@H]1c2c(O)c(OC)c(C)c(OC(=O)c3ccc(Br)cc3)c2C[C@H]2[C@H]3C4=C(C[C@H]([C@H](C#N)N12)N3C)C(=O)C(C)=C(OC)C4=O", "Assay result": 7.85}
{"Compound": "C/C=C(/C)C(=O)OC[C@H]1C2=C(C[C@H]3[C@H]4C5=C(C[C@@H]([C@H](C#N)N13)N4C)C(=O)C(C)=C(OC)C5=O)C(=O)C(C)=C(OC)C2=O [RENIERAMYCIN M]", "Assay result": 8.19}

Prompt line: Would you kindly share the measured pIC50 for `C/C=C(/C)C(=O)OC[C@H]1c2c(O)c(OC)c(C)c(OC(=O)[C@H](C)NC(=O)OC(C)(C)C)c2C[C@H]2[C@H]3C4=C(C[C@H]([C@H](C#N)N12)N3C)C(=O)C(C)=C(OC)C4=O` ?
Response line: 7.80

Prompt line: Would you kindly share the measured pIC50 for `C/C=C(/C)C(=O)OC[C@H]1c2c(c(OC(C)=O)c(C)c(OC)c2OC(C)=O)C[C@H]2[C@H]3C4=C(C[C@H]([C@H](C#N)N12)N3C)C(=O)C(C)=C(OC)C4=O` ?
Response line: 7.60

----------
test system: NCI-H292; assay: Cytotoxicity against human NCI-H292 cells after 72 hrs by MTT assay; type: functional, cell-based; conditions: NCI-H292, 72 h
Measurement name: pIC50
Remember the convention: pIC50 equals -log10 of concentration in molar.

{"Structure smiles string": "C/C=C(/C)C(=O)OC[C@H]1c2c(O)c(OC)c(C)c(OC(=O)OC)c2C[C@H]2[C@H]3C4=C(C[C@H]([C@H](C#N)N12)N3C)C(=O)C(C)=C(OC)C4=O", "Assay result": 7.96}

Prompt line: Would you kindly share the measured pIC50 for `C/C=C(/C)C(=O)OC[C@H]1c2c(O)c(OC)c(C)c(OC(=O)/C=C/c3cccnc3)c2C[C@H]2[C@H]3C4=C(C[C@H]([C@H](C#N)N12)N3C)C(=O)C(C)=C(OC)C4=O` ?
Response line: 7.24

Prompt line: Would you kindly share the measured pIC50 for `C/C=C(/C)C(=O)OC[C@H]1C2=C(C[C@H]3[C@H]4C5=C(C[C@@H]([C@H](C#N)N13)N4C)C(=O)C(C)=C(OC)C5=O)C(=O)C(C)=C(OC)C2=O` ?
Response line: 7.62

Prompt line: Would you kindly share the measured pIC50 for `C/C=C(/C)C(=O)OC[C@H]1c2c(O)c(OC)c(C)c(OC(=O)CC)c2C[C@H]2[C@H]3C4=C(C[C@H]([C@H](C#N)N12)N3C)C(=O)C(C)=C(OC)C4=O` ?
Response line: 8.64

Prompt line: Would you kindly share the measured pIC50 for `C/C=C(/C)C(=O)OC[C@H]1c2c(O)c(OC)c(C)c(OC(=O)[C@H](C)NC(=O)OC(C)(C)C)c2C[C@H]2[C@H]3C4=C(C[C@H]([C@H](C#N)N12)N3C)C(=O)C(C)=C(OC)C4=O` ?
Response line: 7.62

Prompt line: Would you kindly share the measured pIC50 for `C/C=C(/C)C(=O)OC[C@H]1c2c(O)c(OC)c(C)c(OC(=O)/C=C/c3ccc(F)cc3)c2C[C@H]2[C@H]3C4=C(C[C@H]([C@H](C#N)N12)N3C)C(=O)C(C)=C(OC)C4=O` ?
Response line: 7.20

Prompt line: Would you kindly share the measured pIC50 for `COc1cc2c(cc1O)CCN[C@]21CS[C@@H]2c3c(OC(C)=O)c(C)c4c(c3[C@H](COC1=O)N1[C@@H]2[C@H]2c3c(cc(C)c(OC)c3O)C[C@H]([C@@H]1C#N)N2C)OCO4` ?
Response line: 8.80

Prompt line: Would you kindly share the measured pIC50 for `C/C=C(/C)C(=O)OC[C@H]1c2c(O)c(OC)c(C)c(OC(=O)c3ccncc3)c2C[C@H]2[C@H]3C4=C(C[C@H]([C@H](C#N)N12)N3C)C(=O)C(C)=C(OC)C4=O` ?
Response line: 7.70

Prompt line: Would you kindly share the measured pIC50 for `C/C=C(/C)C(=O)OC[C@H]1c2c(O)c(OC)c(C)c(OC(=O)c3cccnc3)c2C[C@H]2[C@H]3C4=C(C[C@H]([C@H](C#N)N12)N3C)C(=O)C(C)=C(OC)C4=O` ?
Response line: 7.23

Prompt line: Would you kindly share the measured pIC50 for `C/C=C(/C)C(=O)OC[C@H]1c2c(O)c(OC)c(C)c(OC(=O)c3ccc(-c4ccccc4)cc3)c2C[C@H]2[C@H]3C4=C(C[C@H]([C@H](C#N)N12)N3C)C(=O)C(C)=C(OC)C4=O` ?
Response line: 7.15

Prompt line: Would you kindly share the measured pIC50 for `C/C=C(/C)C(=O)OC[C@H]1c2c(O)c(OC)c(C)c(OC(C)=O)c2C[C@H]2[C@H]3C4=C(C[C@H]([C@H](C#N)N12)N3C)C(=O)C(C)=C(OC)C4=O` ?
Response line: 8.52
